Each recorded value in this set is attributed to a melting point compilation (Tetko et al.).

parameter: melting point (°C)
Give the value, in units of °C, as a plain number.

These solved cases illustrate the format of a correct answer.
[
  {
    "compound": "CS(=O)(=O)c1cc(C(F)(F)F)ccc1C(=O)c1cnoc1C1CC1",
    "melting point [°C]": 140
  },
  {
    "compound": "COc1ccc(NC=C2C(=O)NN=C2c2c(O)c3ccccc3n(C)c2=O)cc1",
    "melting point [°C]": 281
  },
  {
    "compound": "CN1CCN(C2=Nc3ccccc3Sc3ccc(Cl)cc32)CC1",
    "melting point [°C]": 119
  },
  {
    "compound": "CC(CCC(=O)O)C1CCC2C3C(O)CC4CC(O)CCC4(C)C3CC(=O)C12C (stereo not drawn)",
    "melting point [°C]": 220
  },
  {
    "compound": "COc1cc(CC(=O)O)ccc1Br",
    "melting point [°C]": 104
  }
]

Per the record, `NC(=O)C(Br)(Br)C(N)=O` has melting point of 205

melting point recorded for this compound, OC(CCCc1ccccc1)c1ccccc1 (stereo not drawn) , is 47

Briefly, melting point measured for COc1ccc(N2C(=O)C3ON=C(C(=O)c4ccccc4)C3C2=O)cc1 (stereo not drawn) : 166

====

parameter: melting point

Reference set, count: 4
[
  {
    "molecule": "Cc1cc(C)c(C2(C)CC(C(=O)c3cc4ccccc4o3)C2)c(C)c1 (configuration not stated)",
    "parameter": "melting point",
    "observedMeasurement": "147 to 148 °C"
  },
  {
    "molecule": "Cc1onc(-c2c(Cl)cccc2Cl)c1CCl",
    "parameter": "melting point",
    "observedMeasurement": "61 to 63 °C"
  },
  {
    "molecule": "O=C(CBr)c1c(Cl)cc(C(F)(F)F)cc1Cl",
    "parameter": "melting point",
    "observedMeasurement": "46 to 48 °C"
  },
  {
    "molecule": "CCOC(=O)c1sc(SC)c(S(C)(=O)=O)c1N",
    "parameter": "melting point",
    "observedMeasurement": "111 to 113 °C"
  }
]

// recorded melting point for `Nc1cc(C(F)(F)F)cc(Br)c1N` : 60 to 62 °C

Sure, the documented melting point for `O=C(O)CCc1ccccc1F` is 76 to 78 °C

Reported melting point of `Cc1ccc([N+](=O)[O-])c(N)c1C` : 117 to 122 °C

====

Listed molecules paired with reported melting point

Solved cases below.
[
  {
    "chemSmiles": "O=C(CBr)c1ccc(C(F)(F)F)cc1",
    "melting point": "45 to 46 °C"
  },
  {
    "chemSmiles": "Cc1c(Br)cc(N)c(N)c1C",
    "melting point": "70 to 74 °C"
  }
]

Entry `CSc1nc2cc([N+](=O)[O-])ccc2[nH]1` ; melting point = 211 to 212 °C

Looking up `C#CCON1C(=O)c2ccccc2C1=O` , I see its melting point listed as 149 to 152 °C

Recorded result, `ClCCOCOCCCl` , melting point: -32 °C

====

parameter: melting point

Known melting point results, listed for orientation:
[
  {
    "compound": "CC1=C(c2ccccc2)c2ccccc2C1",
    "melting point": "58 to 58.5 °C"
  },
  {
    "compound": "Cc1nc(I)c(I)[nH]1",
    "melting point": "194 to 195 °C"
  },
  {
    "compound": "CCOC(=O)c1sc(-c2ccc(C(F)(F)F)cc2)nc1C",
    "melting point": "87 to 89 °C"
  }
]

Now look at this one.
Summary for this compound, CC(C)(C)OC(=O)NC(Cc1ccncc1)C(=O)O (centres undefined) : melting point is 225 to 229 °C
